Entry source: PubChem BioAssay

# TARGET ENTITY: Follistatin (Homo sapiens)
# EXPERIMENT SUMMARY: follistatin binders on small-molecule microarrays, primary screen, biochemical, small-molecule microarray, 635/667 nm fluorescence (AID 1132)
# EXPERIMENTAL CONTEXT: FST binding, 635 nm fluorescence, higher = more signal
EXPERIMENTAL ENDPOINT: composite z-score

[
  {
    "COMPOUND": "O=C(O)[C@H]1C[C@H]2C(=O)NCC(=O)N2[C@H]1c1ccc(O)cc1",
    "OBSERVED MEASUREMENT": 1.32
  },
  {
    "COMPOUND": "CN(C)CCCNC(=O)[C@@]1(Cc2ccccc2I)c2ccccc2C(=O)N(Cc2ccccc2C(F)(F)F)[C@H]1c1ccc(CO)cc1",
    "OBSERVED MEASUREMENT": -0.781
  },
  {
    "COMPOUND": "O=C1C[C@@](C(=O)NC2CC2)(c2ccc([N+](=O)[O-])cc2)[C@@H](c2ccc(CO)cc2)N1CC12CC3CC(CC(C3)C1)C2",
    "OBSERVED MEASUREMENT": 1.21
  },
  {
    "COMPOUND": "CCCCCCc1nc(CCCc2cc3c(c(CCCCCC)n2)[Si](C(C)C)(C(C)C)OC3)cc2c1[Si](C(C)C)(C(C)C)OC2",
    "OBSERVED MEASUREMENT": 0.597
  },
  {
    "COMPOUND": "[N-]=[N+]=NCc1ccccc1[C@@H]1OC(c2ccc(OCCCO)cc2)=N[C@]1(Cc1ccccc1N=[N+]=[N-])C(=O)NCc1ccccc1",
    "OBSERVED MEASUREMENT": 1.28
  },
  {
    "COMPOUND": "CCCNC(=O)[C@@H]1c2ccccc2C(=O)N(Cc2ccccc2)[C@H]1c1ccc(CO)cc1",
    "OBSERVED MEASUREMENT": 0.122
  },
  {
    "COMPOUND": "C=CCOC(=O)[C@H]1[C@@H]2C(=O)O[C@@H](c3ccccc3)[C@@H](c3ccccc3)N2[C@@H](c2ccc(OCCOC(=O)[C@@H]3C[C@@H]4C(=O)N5CCC[C@H]5C(=O)N4[C@@H]3c3ccc(O)cc3)cc2)[C@]12C(=O)Nc1ccccc12",
    "OBSERVED MEASUREMENT": 1.39
  },
  {
    "COMPOUND": "CS(=O)(=O)CCOC(=O)C1=CC(c2ccc(CO)cc2)=CC(C2CC2)N(Cc2cc3c(cc2Br)OCO3)C=C1C(=O)OCCS(C)(=O)=O (centres undefined)",
    "OBSERVED MEASUREMENT": 0.678
  },
  {
    "COMPOUND": "COCCCNC(=O)[C@@]1(CCC(=O)OC(C)(C)C)N=C(c2ccc(OCCCO)cc2)O[C@H]1c1ccccc1CN=[N+]=[N-]",
    "OBSERVED MEASUREMENT": 1.39
  },
  {
    "COMPOUND": "[N-]=[N+]=Nc1ccccc1C[C@]1(C(=O)NCCN2CCOCC2)N=C(c2ccc(OCCCO)cc2)O[C@H]1c1ccccc1",
    "OBSERVED MEASUREMENT": 1.29
  },
  {
    "COMPOUND": "[N-]=[N+]=NCc1ccccc1C[C@@]1(C(=O)N2CCOCC2)N=C(c2ccc(OCCCO)cc2)O[C@@H]1c1ccccc1CN=[N+]=[N-]",
    "OBSERVED MEASUREMENT": 1.05
  },
  {
    "COMPOUND": "[N-]=[N+]=NCc1ccccc1C[C@]1(C(=O)NCCN2CCOCC2)N=C(c2ccc(OCCCO)cc2)O[C@H]1c1ccccc1N=[N+]=[N-]",
    "OBSERVED MEASUREMENT": 0.714
  },
  {
    "COMPOUND": "CCOc1cc(C(O)C2C=CC3C(=O)N(c4ccccc4)C(=O)C3N2Nc2ccc([N+](=O)[O-])cc2)ccc1O (centres undefined)",
    "OBSERVED MEASUREMENT": 0.165
  },
  {
    "COMPOUND": "CN(C)CCCCNC(=O)[C@H]1C[C@H]2C(=O)N[C@@H](Cc3ccccc3)C(=O)N2[C@H]1c1ccc(O)cc1",
    "OBSERVED MEASUREMENT": 1.34
  }
]
